- Test system: RARa:RXR (NR concentration 270 nM, RXRa partner concentration 90 nM)
- Experiment Summary: PBM binding z-score (relative to random genomic background probes); higher = stronger binding; sequences stand for … in GC…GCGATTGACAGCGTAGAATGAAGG
Property Measured: PBM binding z-score

                         sequence_code                             target_system    property_measured  endpoint_result
 0  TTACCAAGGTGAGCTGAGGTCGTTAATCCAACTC  RARa:RXR (NR concentration 270 nM, RXRa partner concentration 90 nM)  PBM binding z-score             1.51
 1  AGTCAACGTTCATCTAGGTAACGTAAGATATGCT  RARa:RXR (NR concentration 270 nM, RXRa partner concentration 90 nM)  PBM binding z-score            0.244
 2  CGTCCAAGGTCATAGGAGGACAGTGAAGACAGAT  RARa:RXR (NR concentration 270 nM, RXRa partner concentration 90 nM)  PBM binding z-score             4.89
 3  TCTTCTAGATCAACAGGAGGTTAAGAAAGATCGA  RARa:RXR (NR concentration 270 nM, RXRa partner concentration 90 nM)  PBM binding z-score             1.32
 4  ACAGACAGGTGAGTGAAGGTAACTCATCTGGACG  RARa:RXR (NR concentration 270 nM, RXRa partner concentration 90 nM)  PBM binding z-score           0.0538
 5  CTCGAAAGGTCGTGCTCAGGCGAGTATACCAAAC  RARa:RXR (NR concentration 270 nM, RXRa partner concentration 90 nM)  PBM binding z-score             3.16
 6  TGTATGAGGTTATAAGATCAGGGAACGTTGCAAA  RARa:RXR (NR concentration 270 nM, RXRa partner concentration 90 nM)  PBM binding z-score             1.62
 7  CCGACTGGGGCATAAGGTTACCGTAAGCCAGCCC  RARa:RXR (NR concentration 270 nM, RXRa partner concentration 90 nM)  PBM binding z-score             1.66
 8  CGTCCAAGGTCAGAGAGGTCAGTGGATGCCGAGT  RARa:RXR (NR concentration 270 nM, RXRa partner concentration 90 nM)  PBM binding z-score             5.33
 9  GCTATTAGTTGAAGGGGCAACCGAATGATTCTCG  RARa:RXR (NR concentration 270 nM, RXRa partner concentration 90 nM)  PBM binding z-score           0.0521
10  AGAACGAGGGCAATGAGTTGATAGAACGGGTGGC  RARa:RXR (NR concentration 270 nM, RXRa partner concentration 90 nM)  PBM binding z-score            0.324
11  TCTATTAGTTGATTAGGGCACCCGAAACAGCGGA  RARa:RXR (NR concentration 270 nM, RXRa partner concentration 90 nM)  PBM binding z-score            0.573
